Listed here: items and their measured amyloid nucleation score.
- TEST PROTOCOL: amyloid nucleation score (Sup35N fusion, yeast selection) (log enrichment); library NNK1; higher = more nucleation; inactive = no reads after selection;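 further: zero at mode of non-aggregating sequences after 7 days selection at 30°C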
Respond with the number and no other words.

Please review the entries below; each comes with its answer.
SEQ TEXT | REPORTED RESULT
VCSQHGGWISGGKGSILARS | -0.417
YMIMQLDACFECLTFQGQY | 5.9
WHYNMLYCLLRRSRLCWNIV | -0.403
TLLSNWVEMNPLYFMLDLPY | 0.225
DIIVFSVLFLVTLDGDLWC | 0.476

So what does the record say about amyloid nucleation score for LVRLVVLLKEPGEDRFIIEH ?
-0.427

So what does the record say about amyloid nucleation score for KCIYTEKEMGLSAFTLRLYI ?
6.29

So what does the record say about amyloid nucleation score for DAEFRHDSGYEVHHQKLVFF ?
2.91
